Origin of values: patent US20170355757A1

- Experimental Target: T1, human C5 R885H-mmh (human, UniProt P01031 19-1676)
- T1 construct: also called human C5 variant R885H
- Test Protocol: SPR, mAb captured via anti-hFc, 37C
- Procedure: Equilibrium dissociation constants (KD values) for C5 binding to purified anti-C5 antibodies were determined using a real-time surface plasmon resonance biosensor assay on a Biacore T200 instrument. […] Human C5 was obtained from a commercial source (EMD). […] Association of all the C5 reagents to each of the captured monoclonal antibodies was monitored for 3 minutes and their dissociation in HBST running buffer was monitored for 8 minutes. […]
Overview of recorded kon for various binders
Report as a plain number; the unit M⁻¹ s⁻¹ is understood.

Check out these entries, answers already filled in.
Binder: H4H12163P (antibody, human IgG4, V domains shown, Human IgG4 Fc with S108P hinge mutation (H4H)) VH: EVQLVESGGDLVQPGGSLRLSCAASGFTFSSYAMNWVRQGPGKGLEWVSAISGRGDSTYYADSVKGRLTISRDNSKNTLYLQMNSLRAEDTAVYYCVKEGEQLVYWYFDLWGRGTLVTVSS VL: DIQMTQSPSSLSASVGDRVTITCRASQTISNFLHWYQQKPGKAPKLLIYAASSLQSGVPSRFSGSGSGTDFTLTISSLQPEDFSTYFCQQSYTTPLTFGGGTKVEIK
kon (M⁻¹ s⁻¹): 724000

Binder: H4H12169P (antibody, human IgG4, V domains shown, Human IgG4 Fc with S108P hinge mutation (H4H)) VH: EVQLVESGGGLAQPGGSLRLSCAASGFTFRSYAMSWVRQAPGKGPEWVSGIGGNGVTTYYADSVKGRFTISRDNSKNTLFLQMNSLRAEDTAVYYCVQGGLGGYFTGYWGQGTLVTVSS VL: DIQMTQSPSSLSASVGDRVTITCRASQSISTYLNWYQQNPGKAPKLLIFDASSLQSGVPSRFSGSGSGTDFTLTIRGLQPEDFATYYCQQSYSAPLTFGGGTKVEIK
kon (M⁻¹ s⁻¹): 429000

Binder: H4H12171P (antibody, human IgG4, V domains shown, Human IgG4 Fc with S108P hinge mutation (H4H)) VH: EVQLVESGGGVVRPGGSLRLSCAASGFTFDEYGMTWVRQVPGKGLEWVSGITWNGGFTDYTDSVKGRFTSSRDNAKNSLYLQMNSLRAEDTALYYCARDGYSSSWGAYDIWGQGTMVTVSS VL: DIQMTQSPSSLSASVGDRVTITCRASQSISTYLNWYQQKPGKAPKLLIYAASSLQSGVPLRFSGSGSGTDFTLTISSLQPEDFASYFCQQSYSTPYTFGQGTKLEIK
kon (M⁻¹ s⁻¹): 592000

Binder: H4H12164P (antibody, human IgG4, V domains shown, Human IgG4 Fc with S108P hinge mutation (H4H)) VH: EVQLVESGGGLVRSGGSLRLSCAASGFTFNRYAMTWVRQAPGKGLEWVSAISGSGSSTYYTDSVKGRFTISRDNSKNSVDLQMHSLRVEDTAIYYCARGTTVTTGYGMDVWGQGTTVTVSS VL: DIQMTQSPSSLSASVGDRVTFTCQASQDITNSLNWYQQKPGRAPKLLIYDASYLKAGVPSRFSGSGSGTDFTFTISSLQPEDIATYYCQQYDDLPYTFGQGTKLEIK
kon (M⁻¹ s⁻¹): 195000

Problem: Answer with the recorded kon of H4H12167P (antibody, human IgG4, V domains shown, Human IgG4 Fc with S108P hinge mutation (H4H)) VH: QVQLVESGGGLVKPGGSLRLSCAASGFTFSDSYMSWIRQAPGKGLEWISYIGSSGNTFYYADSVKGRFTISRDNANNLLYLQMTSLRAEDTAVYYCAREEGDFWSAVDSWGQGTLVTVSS VL: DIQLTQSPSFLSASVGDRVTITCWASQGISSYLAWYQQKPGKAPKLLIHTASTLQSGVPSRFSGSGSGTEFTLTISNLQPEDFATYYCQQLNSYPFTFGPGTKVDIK only.
Solution: 881000
